# tested on: IL-8 (CXCL8), captured by monoclonal antibody (Homo sapiens, UniProt P10145 P10145:28-99)
# Sequence (P10145 28-99, one chain of several): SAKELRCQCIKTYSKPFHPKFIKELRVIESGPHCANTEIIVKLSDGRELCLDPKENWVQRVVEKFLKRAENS
# assay text: single-molecule TIRF; antibody-mediated capture; 25% horse serum, 21 C; kon 2.29e6, koff 2.32
# recorded conditions: tags: Bio-Rad BR-1098; captured by biotinylated anti-IL-8 EPR19358-108; label: 3'-Cy5
recorded metric: Kd

• GGGGGCUUAUCAUUCCAUUUAGUGUUAUGAUAACC (ssRNA, 2'-F at all pyrimidines) [8A-35 (SEQ ID NO 2)] = 1010 nM
